Known pKd of a selection of variants
B1: scFv; the commonest letter at each place (parent)
chain 1: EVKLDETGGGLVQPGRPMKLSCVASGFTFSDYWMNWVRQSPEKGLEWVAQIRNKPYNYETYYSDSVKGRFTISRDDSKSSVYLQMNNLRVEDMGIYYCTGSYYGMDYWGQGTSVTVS
chain 2: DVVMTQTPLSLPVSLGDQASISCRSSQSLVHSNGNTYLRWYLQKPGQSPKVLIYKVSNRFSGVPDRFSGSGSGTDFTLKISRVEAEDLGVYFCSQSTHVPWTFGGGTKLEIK

Variants of: B1
METHOD_DESCRIPTION: Kd (Tite-Seq)
SETUP_CONDITIONS: with fluorescein; format: scFv 4-4-20, heavy + light
pKd: −log10 of the molar value.

For this variant ( chain 1 D31G N35H ), measured pKd is ≤ 5.00

For this variant ( chain 1 Y32P V37Y ), measured pKd is ≤ 5.00

For this variant ( chain 1 Y32Q W33V N35E ), measured pKd is 5.11

For this variant ( chain 1 T28H D31K ), measured pKd is 8.22

For this variant ( chain 1 F29A S30D M34K ), measured pKd is ≤ 5.00

For this variant ( chain 1 S101T Y103P ), measured pKd is ≤ 5.00

For this variant ( chain 1 Y102S M105K ), measured pKd is 8.60

For this variant ( chain 1 G104M ), measured pKd is ≤ 5.00

For this variant ( chain 1 M34S N35H ), measured pKd is ≤ 5.00

For this variant ( chain 1 G104L W108R ), measured pKd is ≤ 5.00

For this variant ( chain 1 T28K D31I ), measured pKd is ≤ 5.00
